assay: chemical genetic growth profiling, strain panel (AID 1159580);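 also: tested at 20 µM; growth read once vehicle control cultures reached saturation at 30 °C; 1 = growth at the plate median or of vehicle wells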; conditions: S. cerevisiae deletion strains, growth OD, locus YKL190W, strain CNB1, stronger effect = lower value
The whole screen tested about 5,500 compounds, of which about 2,000 (36%) were called active. Roughly 18% stayed inconclusive and do not appear here. The list shows a part of the results.
Please go through the items and note down their normalized growth.
Answers are plain numbers.

Use these answered entries as a reference point.
CSc1nc(NC(C)C)nc(NC(C)C)n1 ... 1.02
NC(=O)c1ccccc1O ... 0.998
COc1ccc(-c2cc(=O)c3c(O)cc(O)cc3o2)cc1O ... 0.993
COc1cc([N+](=O)[O-])c(OC)cc1SCC(=O)NNC(=O)c1cc(OC)c(OC)c(OC)c1 ... 0.999
COc1cc(C)c2c(=O)c3c(O)cc(OC)cc3oc2c1 ... 1.01
CNC(=S)N/N=C\c1cc(Br)cc(Br)c1O ... 0.36

// for each compound below, give its normalized growth
1. COC(=O)NC(=S)Nc1ccccc1NC(=S)NC(=O)OC
2. COc1nc(NC(C)C)nc(NC(C)C)n1
3. C[C@@H]1CC[C@@]23CCC4(C)[C@@](C=CC5[C@@]6(C)CC[C@H](O)C(C)(C)C6CC[C@]54C)(OC2=O)C3[C@H]1C (some centres not stated)

1.01
1.02
1.01

// for each compound below, give its normalized growth
1. O=C(/C=C(\O)c1ccccc1)c1ccccc1O
2. CCOC(=O)c1nnc2cc(C)nn2c1C
3. COP(N)(=O)SC (configuration not stated)

0.902
0.995
1

---

assay: chemical genetic growth profiling, strain panel (AID 1159580); conditions: S. cerevisiae deletion strains, growth OD, locus YGL248W, strain PDE1, stronger effect = lower value
About 2,000 (36%) of roughly 5,500 compounds were called active. Roughly 18% stayed inconclusive and do not appear here. Some of the results follow.
Please go through the items and note down their normalized growth.
Answers are plain numbers.

Use these answered entries as a reference point.
C[C@H]1[C@H](C)CC[C@]2(C(=O)O)CC[C@]3(C)C(=CCC4[C@@]5(C)C[C@@H](O)[C@H](O)[C@@](C)(CO)C5[C@H](O)C[C@]43C)[C@H]12 (stereo partly drawn) ... 0.994
CCC(=O)OCC(=O)[C@@]1(OC(=O)CC)[C@@H](C)CC2C3CCC4=CC(=O)C=C[C@]4(C)C3(F)[C@@H](O)C[C@@]21C (stereo partly drawn) ... 0.943
CO[C@H]1[C@H](O)[C@@H](O[C@H]2CC[C@]3(C=O)C4CC[C@]5(C)[C@@H](C6=CC(=O)OC6)CC[C@]5(O)C4CC[C@@H]3C2)O[C@@H](C)[C@@H]1O (stereo partly drawn) ... 0.973
CC(=O)OC1CC[C@@]2(C)C(CCC3C2CC[C@]2(C)C(C4=CC(=O)OC4)C(OC(C)=O)CC32O)C1 (stereo partly drawn) ... 0.995
CC12CCC3C(CCC4(O)CC(O)CCC34/C=N/NC(N)=O)C1(O)CCC2C1=CC(=O)OC1 (stereo not drawn) ... 1
CC(=O)O[C@@H]1c2c(ccc3ccc(=O)oc23)OC(C)(C)[C@@H]1OC(=O)CC(C)C ... 0.994

// for each compound below, give its normalized growth
1. C[C@@H]1O[C@@H](O[C@H]2CC[C@]3(C=O)C4CC[C@]5(C)[C@@H](C6=CC(=O)OC6)CC[C@]5(O)C4CC[C@]3(O)C2)[C@H](O)[C@H](O)[C@H]1O (stereo partly drawn)
2. C[C@H]1OC(O[C@H]2[C@@H](O)CC(O[C@H]3[C@@H](O)C[C@H](O[C@H]4CC[C@]5(C)C6CC[C@]7(C)[C@@H](C8=CC(=O)OC8)[C@@H](O)C[C@]7(O)[C@@H]6CC[C@@H]5C4)O[C@@H]3C)O[C@@H]2C)C[C@H](O)C1O (stereo partly drawn)
3. C[C@]12CCC3C(CC[C@]4(O)C[C@@H](O)CC[C@]34C=O)[C@@]1(O)CCC2C1=CC(=O)OC1 (stereo partly drawn)
4. CC1(C)Oc2ccc3ccc(=O)oc3c2CC1O (stereo not drawn)

1. 0.976
2. 1.01
3. 1
4. 0.998

---

experiment: chemical genetic growth profiling, strain panel (AID 1159580);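 also: tested at 20 µM; growth read once vehicle control cultures reached saturation at 30 °C; 1 = growth at the plate median or of vehicle wells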; conditions: S. cerevisiae deletion strains, growth OD, locus YDL040C, strain nat1, stronger effect = lower value
Among all 5,500 compounds or so, about 2,000 (36%) were called active. Another 18% or so got no clear call; they are omitted. Some of the results follow.
Please go through the items and note down their normalized growth.
One number for each entry.

Cc1c(C(N)=O)cc([N+](=O)[O-])cc1[N+](=O)[O-] ... 1.02
CCCCCC(O)C1C(=O)OC(C)C(O)/C=C/C=C/C=C/C=C/C=C(\C)C(O)CC(O)CC(O)CC(O)CC(O)CC(O)CC1O (stereo unspecified) ... 0.99

// for each molecule below, give its normalized growth
1. CC1CCCC(C)N1NC(=O)c1ccc(Cl)c(S(N)(=O)=O)c1 (stereo unspecified)
2. CC1Cc2ccccc2N1NC(=O)c1ccc(Cl)c(S(N)(=O)=O)c1 (stereo unspecified)
3. NC(=O)c1ccc([N+](=O)[O-])cc1Cl
4. COC(=O)C(N)CS (stereo unspecified)
5. Cc1cc(N)c2ccccc2[n+]1CCCCCCCCCC[n+]1c(C)cc(N)c2ccccc21
6. NC(=O)c1cc([N+](=O)[O-])cc([N+](=O)[O-])c1

[1.01, 0.997, 0.992, 0.99, 0.0635, 1.01]

// for each molecule below, give its normalized growth
1. O=C(O)CCc1nc(-c2ccccc2)c(-c2ccccc2)o1
2. Cc1ccccc1N1C(=O)c2cc(S(N)(=O)=O)c(Cl)cc2NC1C (stereo unspecified)
3. O=c1c(O)cc([C@H]2Oc3cc(O)cc(O)c3C[C@H]2O)cc2c([C@H]3Oc4cc(O)cc(O)c4C[C@H]3O)cc(O)c(O)c12

0.955
0.986
1.04

---

assay: chemical genetic growth profiling, strain panel (AID 1159580);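 also: tested at 20 µM; growth read once vehicle control cultures reached saturation at 30 °C; 1 = growth at the plate median or of vehicle wells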; conditions: S. cerevisiae deletion strains, growth OD, locus YGR078C, strain PAC10, stronger effect = lower value
In all, about 5,500 compounds went through this assay and about 2,000 (36%) were called active. Another 18% or so got no clear call; they are omitted. The list shows a part of the results.
# note: boundary value 1 maps to 0 (no); normalized growth below it maps to 1 (yes)

Cc1onc(-c2ccccc2)c1C(=O)On1c(-c2ccccc2)nc2ccccc2c1=O ... 1 (yes)
CO[C@@H]1C[C@H](O[C@H]2CC[C@]3(C)C4CC[C@]5(C)[C@@H](C6=CC(=O)OC6)CC[C@]5(O)[C@@H]4CC[C@]3(O)C2)O[C@H](C)[C@@H]1O (some centres not stated) ... 1 (yes)
O=C(CCCN1CCC2(CC1)C(=O)NCN2c1ccccc1)c1ccc(F)cc1 ... 1 (yes)
Nc1nc(/C(=C/CC(=O)O)C(=O)N[C@@H]2C(=O)N3C(C(=O)O)=CCS[C@H]23)cs1 ... 0 (no)
CSCCC(N)C(=O)NC(CC(C)C)C(=O)NC(Cc1ccccc1)C(=O)O (configuration not stated) ... 0 (no)

Consider the molecule CNC(=S)N/N=C\c1cc(Br)cc(Br)c1O . Is its normalized growth strictly less than 1?
1 (yes)

Consider the molecule NC[C@@H]1O[C@H](O[C@@H]2[C@@H](CO)OC(O[C@@H]3[C@@H](O)[C@H](N)C[C@H](N)[C@H]3O[C@H]3O[C@H](CO)[C@@H](O)[C@H](O)[C@H]3N)[C@@H]2O)[C@H](N)[C@@H](O)[C@@H]1O (some centres not stated) . Is its normalized growth strictly less than 1?
1 (yes)

Consider the molecule CCCc1nn(C)c2c(=O)[nH]c(-c3cc(S(=O)(=O)N4CCN(C)CC4)ccc3OCC)nc12 . Is its normalized growth strictly less than 1?
0 (no)

Consider the molecule O=C(/C=C(\O)c1ccccc1)c1ccccc1O . Is its normalized growth strictly less than 1?
1 (yes)

---

test: chemical genetic growth profiling, strain panel (AID 1159580);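 also: tested at 20 µM; growth read once vehicle control cultures reached saturation at 30 °C; 1 = growth at the plate median or of vehicle wells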; conditions: S. cerevisiae deletion strains, growth OD, locus YGL167C, strain pmr1, stronger effect = lower value
The campaign covered roughly 5,500 compounds. About 2,000 (36%) were called active. Inconclusive results (about 18%) are left out. This is one part of the list.
MEASURED_METRIC: normalized growth
One number for each entry.

COc1ccc(-c2cc(=O)c3c(O)cc(O)cc3o2)cc1 ... 1.01
C[C@H]1O[C@@H](O[C@H]2[C@@H](O)C[C@H](O[C@H]3[C@@H](O)C[C@H](O[C@H]4CC[C@]5(C)C6C[C@@H](O)[C@]7(C)[C@@H](C8=CC(=O)OC8)CC[C@]7(O)C6CC[C@@H]5C4)O[C@@H]3C)O[C@@H]2C)C[C@H](O)[C@@H]1O (stereo not given in full) ... 0.998
CCCCC(=O)O[C@]1(C(=O)CO)[C@@H](C)CC2C3CCC4=CC(=O)C=C[C@]4(C)[C@@]3(F)C(O)C[C@@]21C (stereo not given in full) ... 0.959
C[C@H]1O[C@@H](O[C@H]2[C@@H](O)C[C@H](O[C@H]3[C@@H](O)C[C@H](O[C@H]4CC[C@]5(C)C6CC[C@]7(C)[C@@H](C8=CC(=O)OC8)CC[C@]7(O)C6CC[C@@H]5C4)O[C@@H]3C)O[C@@H]2C)C[C@H](O)[C@@H]1O (stereo not given in full) ... 1
Cc1c(C(N)=O)cc([N+](=O)[O-])cc1[N+](=O)[O-] ... 1.03
C[C@@H]1CC[C@@]23CCC4(C)[C@@](C=CC5[C@@]6(C)CCC(=O)C(C)(C)C6CC[C@]54C)(OC2=O)C3[C@H]1C (stereo not given in full) ... 0.994
COc1ccc(-c2cc(=O)c3c(OC)c(OC)c(OC)c(OC)c3o2)cc1OC ... 1.01
C[C@H]1[C@H](C)CC[C@]2(C(=O)O)CC[C@]3(C)C(=CCC4[C@@]5(C)C[C@@H](O)[C@H](O)[C@@](C)(CO)C5CC[C@]43C)[C@H]12 (stereo not given in full) ... 1.03
CC(=O)O[C@@H]1CC2C(C)(CC[C@H](O)C2(C)C)C2CC[C@]3(C)C(=CC(=O)O[C@H]3c3ccoc3)C21C (stereo not given in full) ... 0.999
O=C(CCCN1CCC2(CC1)C(=O)NCN2c1ccccc1)c1ccc(F)cc1 ... 0.922

// for each compound below, give its normalized growth
1. COc1cc(-c2cc(=O)c3c(O)c(OC)c(OC)c(OC)c3o2)cc(OC)c1OC
2. Nc1ccc(S(=O)(=O)Nc2ncccn2)cc1
3. Cc1cc(N)c2ccccc2[n+]1CCCCCCCCCC[n+]1c(C)cc(N)c2ccccc21
4. CC(C)C[C@@H](NC(=O)OCC1c2ccccc2-c2ccccc21)C(=O)O

1. 1.02
2. 0.976
3. 0.0819
4. 0.999

// for each compound below, give its normalized growth
1. CN(C)C(=O)C(CCN1CCC(O)(c2ccc(Cl)cc2)CC1)(c1ccccc1)c1ccccc1
2. CCCCCC(O)C1C(=O)OC(C)C(O)/C=C/C=C/C=C/C=C/C=C(\C)C(O)CC(O)CC(O)CC(O)CC(O)CC(O)CC1O (stereo not given)
3. COC(=O)C[C@H]1C(C)(C)[C@@H](O)[C@@H]2CC3=C4CC(O)O[C@@H](c5ccoc5)[C@]4(C)CCC3[C@@]1(C)C2=O (stereo not given in full)
4. C[C@H]1[C@H](C)CC[C@]2(C(=O)O)CC[C@]3(C)C(=CCC4[C@@]5(C)C[C@@H](O)[C@H](O)[C@@](C)(CO)C5[C@H](O)C[C@]43C)[C@H]12 (stereo not given in full)
5. Nc1nc(/C(=C/CC(=O)O)C(=O)N[C@@H]2C(=O)N3C(C(=O)O)=CCS[C@H]23)cs1

0.99
0.984
1.02
0.962
1

// for each compound below, give its normalized growth
1. CCC(=O)OCC(=O)[C@@]1(OC(=O)CC)[C@@H](C)CC2C3CCC4=CC(=O)C=C[C@]4(C)C3(F)[C@@H](O)C[C@@]21C (stereo not given in full)
2. CCC(=O)OCC(=O)C1(OC(=O)CC)C(C)CC2C3C(Cl)CC4=CC(=O)C=CC4(C)C3C(O)CC21C (stereo not given)

1
1.06

// for each compound below, give its normalized growth
1. CCC(=O)OCC(=O)C1(OC(=O)CC)C(C)CC2C3CCC4=CC(=O)C=CC4(C)C3(Cl)C(O)CC21C (stereo not given)
2. CCC(=O)O[C@]1(C(=O)CCl)[C@@H](C)CC2C3CCC4=CC(=O)C=C[C@]4(C)[C@@]3(F)[C@@H](O)C[C@@]21C (stereo not given in full)
3. COC(=O)[C@H]1[C@H]2C[C@H]3c4[nH]c5cc(OC)ccc5c4CCN3C[C@H]2C[C@@H](OC(=O)c2cc(OC)c(OC)c(OC)c2)[C@@H]1OC
4. NC(=O)c1ccc([N+](=O)[O-])cc1Cl
5. CC1(C)C(=O)CC[C@@]2(C)C1C[C@@H](O)[C@@]1(C)C3=CC(=O)O[C@@H](c4ccoc4)[C@]3(C)CCC21 (stereo not given in full)
6. COC1C(O)C(O[C@H]2CC[C@]3(C=O)C4C(CC[C@]3(O)C2)[C@@]2(O)CC[C@H](C3=CC(=O)OC3)[C@@]2(C)C[C@H]4OC(C)=O)OC(C)C1OC(C)=O (stereo not given in full)
7. COC1CC(O[C@H]2CC[C@]3(C=O)C4CC[C@]5(C)C(C6=CC(=O)OC6)CC[C@]5(O)C4CC[C@]3(O)C2)OC(C)C1O (stereo not given in full)
8. CC1(C)S[C@@H]2C(N3C(=O)[C@@H](c4ccccc4)NC3(C)C)C(=O)N2[C@H]1C(=O)O (stereo not given in full)

0.948
1.03
1.02
0.978
1.04
1.02
0.976
1.02

Which value of normalized growth has been reported for CC1=CC(=O)C(C(C)C)=CC1=O in the records?
0.996
